System: Murine L1210 leukemia cells
assay_name: L1210 cell growth inhibition (IC50)
Format: cell-based
settings: 48 h exposure, read-out: IC50, 48 h
pIC50: −log10 of the molar value.
measured_quantity: pIC50

> print(dat)
                     molecule  result
1  CCNCCCNCCCCNCCCNCC [DESPM]    4.52

###

Test system: L1210 leukemia cells
assay_name: Intracellular concentration / accumulation of analogue in L1210 cells (HPLC)
settings: extracellular 100 μM
measured_quantity: intracellular level

> print(dat)
                                   molecule          study.target    measured.quantity        result
1  FC(F)(F)CNCCCNCCCCNCCCNCC(F)(F)F [FDESPM]  L1210 leukemia cells  intracellular level       < 20 µM
2  CCOC(=O)[C@@]1(C)CSC(c2ccc(OCCCCNCCCNCCCN)cc2O)=N1 [Compound 9]  L1210 leukemia cells  intracellular level  947 ± 110 µM
3  C[C@]1(C(=O)O)CSC(c2ccc(O)cc2O)=N1 [Compound 8]  L1210 leukemia cells  intracellular level       ≤ 50 µM
4  NCCCCNCCCNC(=O)c1ccc(C(=O)O)cc1 [Compound 7, N^1-terephthaloylspermidine]  L1210 leukemia cells  intracellular level       < 70 µM
